In this section, each of the compounds is paired with its reported %Inh.
Tested on: FGFR2;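 also: KINOMEscan kinase panel screen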
condition_summary: concentration: 1 μM, replicates: in singlicate; n = 1
readout_kind: %Inh (%)

[
  {
    "compound": "COc1cccc(-c2ccc3c(NC(=O)C4CC4)n[nH]c3n2)c1",
    "readout_kind": "%Inh",
    "obs_value": 0
  },
  {
    "compound": "Cc1ccc(C(=O)Nc2ccc(Nc3ccnc4cc(-c5nccs5)ccc34)cc2O)cc1.Cl",
    "readout_kind": "%Inh",
    "obs_value": 35
  },
  {
    "compound": "CN(c1ccc(NC(=O)Nc2cc(C(F)(F)F)ccc2F)cc1)c1ccnc(Nc2ccc(S(N)(=O)=O)cc2)n1",
    "readout_kind": "%Inh",
    "obs_value": 70
  },
  {
    "compound": "O=C(NC1CCN(c2ccnc(Nc3ccc(F)cc3)n2)C1)c1cc2ccccc2s1 (stereo not shown)",
    "readout_kind": "%Inh",
    "obs_value": 3
  },
  {
    "compound": "CNC(=O)c1ccccc1Nc1nc(Nc2ccc(N3CCOCC3)cc2)ncc1Cl.Cl",
    "readout_kind": "%Inh",
    "obs_value": 97.2
  },
  {
    "compound": "COCCOCCOc1cc2ncc3c4ccc(C#N)cc4[nH]c3c2cc1OC",
    "readout_kind": "%Inh",
    "obs_value": 25
  },
  {
    "compound": "Cl.c1ccc(-c2ccc3c(Nc4ccc5[nH]ccc5c4)ccnc3c2)nc1",
    "readout_kind": "%Inh",
    "obs_value": 63
  },
  {
    "compound": "CC(C)(C)c1ccc2nccc(Nc3cccc(O)c3)c2c1",
    "readout_kind": "%Inh",
    "obs_value": 0
  },
  {
    "compound": "C[C@@H](Oc1cc(-n2cnc3cc(-c4ccnc(NCCS(C)(=O)=O)c4)ccc32)sc1C(N)=O)c1ccccc1Cl",
    "readout_kind": "%Inh",
    "obs_value": 88
  },
  {
    "compound": "O=C(Nc1cccc(-c2nn3ccccc3c2-c2ccnc(Nc3cccc(C(F)(F)F)c3)n2)c1)c1c(F)cccc1F",
    "readout_kind": "%Inh",
    "obs_value": 20
  },
  {
    "compound": "c1ccc(-c2cnc3nccnn23)cc1",
    "readout_kind": "%Inh",
    "obs_value": 0
  },
  {
    "compound": "Fc1ccc(-c2ncn(C3CCNCC3)c2-c2ccnc(Oc3ccc(-c4ccccc4)cc3)n2)cc1",
    "readout_kind": "%Inh",
    "obs_value": 0
  },
  {
    "compound": "COc1cc2c(cc1OCCN1CCNCC1)ncc1c3ccc(C#N)cc3[nH]c21",
    "readout_kind": "%Inh",
    "obs_value": 16
  },
  {
    "compound": "FC(F)(F)c1ccc(/C=C/c2cncnc2Nc2ccc3[nH]c(Cc4ccccc4)nc3c2)cc1",
    "readout_kind": "%Inh",
    "obs_value": 0
  },
  {
    "compound": "COc1cc(Nc2nccc(-c3c(-c4cccc(NC(=O)c5c(F)cccc5F)c4)nn4ncccc34)n2)cc(OC)c1OC",
    "readout_kind": "%Inh",
    "obs_value": 61
  },
  {
    "compound": "Cl.NC(=O)c1cccc(Nc2nccc(Nc3ccc(Oc4c(Cl)cccc4Cl)c(Cl)c3)n2)c1",
    "readout_kind": "%Inh",
    "obs_value": 0
  },
  {
    "compound": "NCCCC(NC(=O)c1cc(Br)c(-c2ccnc3[nH]ccc23)s1)c1ccccc1.O=C(O)C(F)(F)F.O=C(O)C(F)(F)F (stereo not shown)",
    "readout_kind": "%Inh",
    "obs_value": 16
  },
  {
    "compound": "Cn1cc(-c2ccc3c(c2)CCN3C(=O)Cc2cccc(F)c2)c2c(N)ncnc21",
    "readout_kind": "%Inh",
    "obs_value": 0
  },
  {
    "compound": "COc1ccc(CNC(=O)NC2CCN(c3ccnc(Nc4ccc(F)cc4)n3)CC2)cc1",
    "readout_kind": "%Inh",
    "obs_value": 0
  },
  {
    "compound": "Cc1ccc(F)c(C(=O)Nc2cccc(-c3nn4ccccc4c3-c3ccnc(Nc4cccc(F)c4)n3)c2)c1F",
    "readout_kind": "%Inh",
    "obs_value": 0
  },
  {
    "compound": "O=C(Nc1n[nH]c2nc(-c3ccc(O)cc3)ccc12)C1CC1",
    "readout_kind": "%Inh",
    "obs_value": 0
  },
  {
    "compound": "CSc1cccc2c(-c3ccncn3)c(-c3ccc(F)cc3)nn12",
    "readout_kind": "%Inh",
    "obs_value": 0
  },
  {
    "compound": "Cc1ccc(C)c(NC(=O)NC2CCN(c3ccnc(Nc4ccc(F)cc4)n3)C2)c1 (stereo not shown)",
    "readout_kind": "%Inh",
    "obs_value": 14
  },
  {
    "compound": "CCn1c(-c2nonc2N)nc2c(C#CC(C)(C)O)ncc(OCCCCN)c21.O=C(O)C(F)(F)F.O=C(O)C(F)(F)F",
    "readout_kind": "%Inh",
    "obs_value": 60
  },
  {
    "compound": "COC(=O)Nc1nc2ccc(Oc3ccc(NC(=O)Nc4cc(C(F)(F)F)ccc4F)cc3)cc2n1C.Cl",
    "readout_kind": "%Inh",
    "obs_value": 0
  },
  {
    "compound": "Cn1cc(-c2[nH]c3cc(NC(=O)[C@H](N)C4CCCCC4)cc4c3c2C=NNC4=O)cn1",
    "readout_kind": "%Inh",
    "obs_value": 89
  },
  {
    "compound": "Cc1ccc(C(=O)N2CC[C@@H](O)C2)cc1-n1c(C)cc(OCc2ccc(F)cc2F)c(Br)c1=O",
    "readout_kind": "%Inh",
    "obs_value": 66
  },
  {
    "compound": "Nc1n[nH]c2cnc(-c3ccccc3)cc12",
    "readout_kind": "%Inh",
    "obs_value": 35
  },
  {
    "compound": "COc1cc(Nc2nccc(-c3c(-c4cccc(NC(=O)c5c(F)cccc5F)c4)nn4ccccc34)n2)cc(OC)c1OC",
    "readout_kind": "%Inh",
    "obs_value": 0
  },
  {
    "compound": "c1ccc(-c2n[nH]cc2Nc2ccnc3ccccc23)nc1",
    "readout_kind": "%Inh",
    "obs_value": 0
  },
  {
    "compound": "Cc1cccc(Nc2nc(N[C@H]3CCNC3)ncc2C(N)=O)c1.Cl",
    "readout_kind": "%Inh",
    "obs_value": 0
  },
  {
    "compound": "Cn1cc(-c2ccc3c(c2)CCN3C(=O)Cc2cccc(Cl)c2)c2c(N)ncnc21",
    "readout_kind": "%Inh",
    "obs_value": 0
  },
  {
    "compound": "C[C@@H]1CC[C@@H](C(=O)Nc2ccccc2)CN1c1cc(-c2ccc3c(N)n[nH]c3c2)nc(N)n1",
    "readout_kind": "%Inh",
    "obs_value": 0
  },
  {
    "compound": "COc1cccc(C2=C(Nc3ccc(Cl)c(C(=O)O)c3)C(=O)NC2=O)c1",
    "readout_kind": "%Inh",
    "obs_value": 0
  }
]
